All values here come from patent US8796268B2.

# assayedSystem: Human PI3K gamma (Homo sapiens, UniProt P48736)
# Construct: His (N); host or cells: SF9 insect cells (baculovirus)
# Sequence (P48736 whole entry): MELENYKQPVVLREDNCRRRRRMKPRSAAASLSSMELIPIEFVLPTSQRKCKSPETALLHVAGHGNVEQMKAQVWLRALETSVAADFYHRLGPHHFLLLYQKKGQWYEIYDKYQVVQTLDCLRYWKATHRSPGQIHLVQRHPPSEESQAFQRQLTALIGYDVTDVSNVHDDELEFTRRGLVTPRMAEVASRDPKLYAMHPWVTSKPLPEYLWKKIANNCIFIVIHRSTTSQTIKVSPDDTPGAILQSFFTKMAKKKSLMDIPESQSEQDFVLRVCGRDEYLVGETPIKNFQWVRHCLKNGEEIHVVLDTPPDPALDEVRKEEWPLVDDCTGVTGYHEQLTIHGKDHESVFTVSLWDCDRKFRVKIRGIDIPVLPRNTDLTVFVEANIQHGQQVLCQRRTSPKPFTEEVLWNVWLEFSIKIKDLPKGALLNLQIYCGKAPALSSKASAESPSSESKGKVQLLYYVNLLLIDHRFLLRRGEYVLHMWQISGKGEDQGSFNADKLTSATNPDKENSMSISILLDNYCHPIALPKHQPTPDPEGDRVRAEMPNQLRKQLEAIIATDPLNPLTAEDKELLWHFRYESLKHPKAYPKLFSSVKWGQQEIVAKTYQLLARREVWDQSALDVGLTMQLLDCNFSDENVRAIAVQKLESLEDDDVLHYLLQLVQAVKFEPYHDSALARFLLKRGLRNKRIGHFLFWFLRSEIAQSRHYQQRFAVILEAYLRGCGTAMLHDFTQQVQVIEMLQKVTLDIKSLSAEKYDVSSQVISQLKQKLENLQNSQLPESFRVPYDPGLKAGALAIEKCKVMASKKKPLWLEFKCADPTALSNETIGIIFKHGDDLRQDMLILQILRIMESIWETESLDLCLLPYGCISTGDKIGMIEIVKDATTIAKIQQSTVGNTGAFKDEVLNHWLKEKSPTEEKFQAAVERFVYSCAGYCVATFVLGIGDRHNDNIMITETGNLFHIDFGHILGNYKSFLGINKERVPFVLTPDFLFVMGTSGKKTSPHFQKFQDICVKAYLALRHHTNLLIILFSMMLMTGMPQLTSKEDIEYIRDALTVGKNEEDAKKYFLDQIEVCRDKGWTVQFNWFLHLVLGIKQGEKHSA
# testMethodNotes: Human PI3K gamma enzyme assay (HTRF)
# Type: biochemical
# conditionInfo: at a 1.0 μM concentration; read-out: PI3Kγ Percent Inhibition
So I've got a bunch of molecules here, and I need their inhibition at 1 µM values.

(Q) What does the record list as inhibition at 1 µM for `N#Cc1c(N2CCOCC2)sc(C(=O)O)c1Cc1ccc(Cl)c(Cl)c1` ?
(A) 74.2%

(Q) What does the record list as inhibition at 1 µM for `N#Cc1c(N2CCOCC2)sc(C(=O)O)c1Cc1ccc2ccccc2c1` ?
(A) 69%

(Q) What does the record list as inhibition at 1 µM for `COc1ccc(Cc2c(C(=O)O)sc(N3CCOCC3)c2C#N)cc1Cl` ?
(A) 38.1%

(Q) What does the record list as inhibition at 1 µM for `N#Cc1c(N2CCOCC2)sc(C(=O)O)c1Cc1c(F)cc(Cl)cc1F` ?
(A) 37.6%

(Q) What does the record list as inhibition at 1 µM for `O=C(O)c1sc(N2CCOCC2)nc1Cc1ccc(Cl)c(F)c1` ?
(A) 27.5%

(Q) What does the record list as inhibition at 1 µM for `O=C(O)c1sc(N2CCOCC2)nc1Cc1ccc(Cl)cc1Cl` ?
(A) 28.8%

(Q) What does the record list as inhibition at 1 µM for `COc1cc(Cc2c(C(=O)O)sc(N3CCOCC3)c2C#N)c(F)cc1Cl` ?
(A) 55%

(Q) What does the record list as inhibition at 1 µM for `O=C(O)c1sc(N2CCOCC2)nc1Cc1ccc2ccccc2c1` ?
(A) 67.6%

(Q) What does the record list as inhibition at 1 µM for `O=C(O)c1sc(N2CCOCC2)nc1Cc1ccc2cc(F)ccc2c1` ?
(A) 63.4%
